Listed binders paired with reported SPOT peptide array binding signal intensity
# study system: ScBzz1-D2
# procedure details: SPOT peptide array binding signal intensity (averaged, normalized) (arbitrary units (background-subtracted, floor 0; scale differs between SH3 domains)); higher = stronger binding of the SH3 domain to the peptide
measurement type: SPOT peptide array binding signal intensity

• TKPTPPPKPSHLKPK = 59.5
• TIRRRAPLSLLESHT = 29.5
• SKAKRPKFLLDLQIK = 24
• PSPSSSPPPIPKTAN = 20
• ANNQGPPNLPARDKS = 1
• KRKRRLPVSEDTNTK = 16.5
• RKRAPTPPAPSRSEK = 26
• RKQRSIPLSPIVPES = 12.5
• RFKRHRLEFPFNESE = 1
• DKSRPPRPPPKPLHL = 3
• ISPPASPPPEFDFSK = ≤ 0
• DKKTKPTPPPKPSHL = 46.5
• PPIPNAPLSPAPAVP = 7.5
• MARRRLPDRPPNGIG = 33
• VPPPMQPPPIESSNL = 2
